// Muscarinic acetylcholine receptor M2 (Homo sapiens) AC50 records

>  <compound>
CC(C)C(=O)Nc1ccc([N+](=O)[O-])c(C(F)(F)F)c1 [FLUTAMIDE]

>  <system tested>
Muscarinic acetylcholine receptor M2 (Homo sapiens); also: assay procedure not described here
Sequence (P08172 whole entry): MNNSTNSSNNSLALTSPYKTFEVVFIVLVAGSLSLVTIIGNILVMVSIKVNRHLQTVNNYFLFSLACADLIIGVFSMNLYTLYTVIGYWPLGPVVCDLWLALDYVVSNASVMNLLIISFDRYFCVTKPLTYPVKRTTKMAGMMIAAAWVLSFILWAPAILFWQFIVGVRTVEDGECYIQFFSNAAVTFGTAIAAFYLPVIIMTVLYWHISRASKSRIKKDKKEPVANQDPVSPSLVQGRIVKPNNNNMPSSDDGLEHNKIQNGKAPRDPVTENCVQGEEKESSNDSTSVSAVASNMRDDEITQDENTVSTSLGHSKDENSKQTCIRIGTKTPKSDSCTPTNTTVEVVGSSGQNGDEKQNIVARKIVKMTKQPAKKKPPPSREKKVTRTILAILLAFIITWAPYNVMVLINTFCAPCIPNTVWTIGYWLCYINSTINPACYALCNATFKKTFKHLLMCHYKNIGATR

>  <AC50>
> 30 µM

$$$$
>  <compound>
NC(=O)c1cnccn1 [PYRAZINAMIDE]

>  <system tested>
Muscarinic acetylcholine receptor M2 (Homo sapiens); also: assay procedure not described here

>  <AC50>
> 30 µM

$$$$
>  <compound>
Oc1ncnc2[nH]ncc12

>  <system tested>
Muscarinic acetylcholine receptor M2 (Homo sapiens); also: assay procedure not described here

>  <AC50>
> 30 µM

$$$$
>  <compound>
CC(=O)OC(C)C[N+](C)(C)C (stereo not given)

>  <system tested>
Muscarinic acetylcholine receptor M2 (Homo sapiens); also: assay procedure not described here

>  <AC50>
9.7 µM

$$$$
>  <compound>
Nc1nc(N)c2nc(-c3ccccc3)c(N)nc2n1

>  <system tested>
Muscarinic acetylcholine receptor M2 (Homo sapiens); also: assay procedure not described here

>  <AC50>
> 30 µM

$$$$

----------
Each item that follows carries a reported AC50.
system tested: Adenosine receptor A2a (Homo sapiens, UniProt P29274); also: assay procedure not described here
Sequence (P29274 whole entry): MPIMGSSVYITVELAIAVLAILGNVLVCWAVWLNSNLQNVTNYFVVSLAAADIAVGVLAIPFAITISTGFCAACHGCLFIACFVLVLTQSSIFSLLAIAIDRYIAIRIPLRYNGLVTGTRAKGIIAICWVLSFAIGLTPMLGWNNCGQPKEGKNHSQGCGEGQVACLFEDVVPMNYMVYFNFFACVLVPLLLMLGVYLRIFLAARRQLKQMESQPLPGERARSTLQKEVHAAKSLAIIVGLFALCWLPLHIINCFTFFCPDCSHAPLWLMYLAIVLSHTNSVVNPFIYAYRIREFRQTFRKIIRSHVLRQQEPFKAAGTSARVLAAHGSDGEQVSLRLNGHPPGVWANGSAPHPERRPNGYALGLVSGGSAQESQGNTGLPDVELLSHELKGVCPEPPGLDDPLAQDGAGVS

>  <molecule>
COc1cc(Nc2c(C#N)cnc3cc(OCCCN4CCN(C)CC4)c(OC)cc23)c(Cl)cc1Cl [BOSUTINIB]

>  <AC50>
> 30 µM

$$$$
>  <molecule>
COc1ccccc1OCC(O)COC(N)=O (stereo not given) [METHOCARBAMOL]

>  <AC50>
> 10 µM

$$$$
>  <molecule>
CC(C)(C(=O)c1cccnc1)c1cccnc1 [METYRAPONE]

>  <AC50>
> 10 µM

$$$$
>  <molecule>
NS(=O)(=O)c1cc(-c2nnn[nH]2)c(NCc2cccs2)cc1Cl [AZOSEMIDE]

>  <AC50>
> 30 µM

$$$$
>  <molecule>
CN1C(=O)COc2c(C(=O)NC3CN4CCC3CC4)cc(Cl)cc21 (stereo not given) [AZASETRON]

>  <AC50>
> 30 µM

$$$$
>  <molecule>
Cc1cccc(C)c1NC(=O)C1CCCCN1C (stereo not given) [MEPIVACAINE]

>  <AC50>
> 30 µM

$$$$
>  <molecule>
CN1CCN(C(=O)OC2c3nccnc3C(=O)N2c2ccc(Cl)cn2)CC1 (stereo not given) [ZOPICLONE]

>  <AC50>
> 30 µM

$$$$
>  <molecule>
C[N+](C)(C)CC(=O)O [BETAINE]

>  <AC50>
> 30 µM

$$$$
>  <molecule>
CC(C)C(=O)Nc1ccc([N+](=O)[O-])c(C(F)(F)F)c1 [FLUTAMIDE]

>  <AC50>
> 30 µM

$$$$
>  <molecule>
Cc1c(C(=O)Nc2ccc(N3C[C@@H](C)O[C@@H](C)C3)nc2)cccc1-c1ccc(OC(F)(F)F)cc1 [SONIDEGIB]

>  <AC50>
> 30 µM

$$$$

----------
system tested: Amine oxidase [flavin-containing] A (Homo sapiens, UniProt P21397); also: assay procedure not described here
Sequence (P21397 whole entry): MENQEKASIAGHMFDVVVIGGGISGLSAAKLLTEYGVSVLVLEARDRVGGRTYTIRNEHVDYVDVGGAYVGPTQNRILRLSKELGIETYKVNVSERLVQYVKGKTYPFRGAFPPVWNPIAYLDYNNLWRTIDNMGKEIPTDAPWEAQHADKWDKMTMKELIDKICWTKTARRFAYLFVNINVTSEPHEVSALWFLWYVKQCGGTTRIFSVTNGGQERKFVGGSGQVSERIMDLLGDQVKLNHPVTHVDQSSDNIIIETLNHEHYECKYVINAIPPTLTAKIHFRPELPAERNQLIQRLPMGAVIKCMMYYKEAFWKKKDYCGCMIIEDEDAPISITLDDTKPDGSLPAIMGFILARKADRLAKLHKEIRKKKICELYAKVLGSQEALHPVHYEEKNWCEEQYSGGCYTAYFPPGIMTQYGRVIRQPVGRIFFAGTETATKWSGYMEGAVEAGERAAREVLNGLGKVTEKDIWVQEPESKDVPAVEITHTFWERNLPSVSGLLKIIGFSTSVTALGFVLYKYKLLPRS
Format: functional
observed property: AC50

>  <molecule>
COc1ccc(-c2cc(=O)c3c(O)cc(O[C@@H]4O[C@H](CO[C@@H]5O[C@@H](C)[C@H](O)[C@@H](O)[C@H]5O)[C@@H](O)[C@H](O)[C@H]4O)cc3o2)cc1O

>  <observed property>
AC50

>  <test value>
> 30 µM

$$$$
>  <molecule>
CCOC(=O)C(c1c(O)c2ccccc2oc1=O)c1c(O)c2ccccc2oc1=O [ETHYL BISCOUMACETATE]

>  <observed property>
AC50

>  <test value>
> 30 µM

$$$$
>  <molecule>
COc1ccc2c(c1)OC(C)(C)C(c1ccccc1)C2c1ccc(OCCN2CCCC2)cc1 (configuration not stated)

>  <observed property>
AC50

>  <test value>
> 30 µM

$$$$
>  <molecule>
CN1CCC2=C(C1)c1ccccc1Cc1ccccc12

>  <observed property>
AC50

>  <test value>
> 30 µM

$$$$
>  <molecule>
NS(=O)(=O)c1cc2c(cc1Cl)NC(C1CC3C=CC1C3)NS2(=O)=O (configuration not stated) [CYCLOTHIAZIDE]

>  <observed property>
AC50

>  <test value>
> 30 µM

$$$$
>  <molecule>
COc1cc(Nc2c(C#N)cnc3cc(OCCCN4CCN(C)CC4)c(OC)cc23)c(Cl)cc1Cl

>  <observed property>
AC50

>  <test value>
> 30 µM

$$$$
>  <molecule>
CC(C(=O)O)c1ccc(N2CC=CC2)c(Cl)c1 (configuration not stated)

>  <observed property>
AC50

>  <test value>
> 30 µM

$$$$
>  <molecule>
CN1CCCC(CN2c3ccccc3Sc3ccccc32)C1 (configuration not stated)

>  <observed property>
AC50

>  <test value>
> 30 µM

$$$$
>  <molecule>
CC(=O)OC[C@H]1O[C@@H](n2ccc(=O)[nH]c2=O)[C@H](OC(C)=O)[C@@H]1OC(C)=O [URIDINE TRIACETATE]

>  <observed property>
AC50

>  <test value>
> 30 µM

$$$$
>  <molecule>
CC[C@@H]1/C=C(\C)C[C@H](C)C[C@H](OC)[C@H]2O[C@@](O)(C(=O)C(=O)N3CCCC[C@H]3C(=O)O[C@H](/C(C)=C/[C@@H]3CC[C@H](Cl)[C@H](OC)C3)[C@H](C)[C@@H](O)CC1=O)[C@H](C)C[C@@H]2OC

>  <observed property>
AC50

>  <test value>
> 30 µM

$$$$
>  <molecule>
C#C[C@]1(O)CC[C@H]2[C@@H]3CCc4cc(O)ccc4[C@H]3CC[C@@]21C

>  <observed property>
AC50

>  <test value>
> 30 µM

$$$$
>  <molecule>
NS(=O)(=O)c1cc2c(cc1Cl)NC(CC1CCCC1)NS2(=O)=O (configuration not stated) [CYCLOPENTHIAZIDE]

>  <observed property>
AC50

>  <test value>
> 30 µM

$$$$
>  <molecule>
CC(=O)O[C@]1(C(C)=O)CC[C@H]2[C@@H]3C[C@H](C)C4=CC(=O)CC[C@]4(C)[C@H]3CC[C@@]21C [MEDROXYPROGESTERONE ACETATE]

>  <observed property>
AC50

>  <test value>
> 30 µM

$$$$
>  <molecule>
CCC(=O)O[C@H]1[C@H](O[C@@H]2[C@@H](C)[C@H](O[C@H]3C[C@@](C)(OC)[C@@H](O)[C@H](C)O3)[C@@H](C)C(=O)O[C@H](CC)[C@@](C)(O)[C@H](O)[C@@H](C)C(=O)[C@H](C)C[C@@]2(C)O)O[C@H](C)C[C@@H]1N(C)C [ERYTHROMYCIN PROPIONATE]

>  <observed property>
AC50

>  <test value>
> 30 µM

$$$$
>  <molecule>
Cc1cc(O)cc(C)c1Cl

>  <observed property>
AC50

>  <test value>
> 30 µM

$$$$
>  <molecule>
CCCC1C(=O)N2C(N(C)C)=Nc3ccc(C)cc3N2C1=O (configuration not stated)

>  <observed property>
AC50

>  <test value>
> 30 µM

$$$$
>  <molecule>
Oc1ncnc2[nH]ncc12

>  <observed property>
AC50

>  <test value>
> 30 µM

$$$$
>  <molecule>
CC(C)C(=O)Nc1ccc([N+](=O)[O-])c(C(F)(F)F)c1 [FLUTAMIDE]

>  <observed property>
AC50

>  <test value>
> 30 µM

$$$$
>  <molecule>
CC/C=C\C/C=C\C/C=C\C/C=C\C/C=C\CCCC(=O)O

>  <observed property>
AC50

>  <test value>
> 30 µM

$$$$
>  <molecule>
CCO/N=C(\C(=O)N[C@@H]1C(=O)N2C(C(=O)[O-])=C(Sc3nc(-c4cc[n+](C)cc4)cs3)CS[C@H]12)c1nsc(N)n1

>  <observed property>
AC50

>  <test value>
> 30 µM

$$$$
>  <molecule>
CC(C)Cc1ccc(C(C)C(=O)NO)cc1 (configuration not stated)

>  <observed property>
AC50

>  <test value>
> 30 µM

$$$$
>  <molecule>
O=C(O)CCCN1CCC(O[C@@H](c2ccc(Cl)cc2)c2ccccn2)CC1

>  <observed property>
AC50

>  <test value>
> 30 µM

$$$$
>  <molecule>
C[N+](C)(C)CCCCCCCCCC[N+](C)(C)C

>  <observed property>
AC50

>  <test value>
> 30 µM

$$$$
>  <molecule>
CS(=O)(=O)Nc1cc2occ(NC=O)c(=O)c2cc1Oc1ccccc1

>  <observed property>
AC50

>  <test value>
> 30 µM

$$$$
>  <molecule>
Cc1ccc(O)c2ncccc12

>  <observed property>
AC50

>  <test value>
> 30 µM

$$$$
>  <molecule>
Nc1ccc(C(=O)O)cc1

>  <observed property>
AC50

>  <test value>
> 30 µM

$$$$
>  <molecule>
COc1ccc(CCC(C)NCC(O)c2ccc(O)c([S+](C)[O-])c2)cc1 (configuration not stated)

>  <observed property>
AC50

>  <test value>
> 30 µM

$$$$
>  <molecule>
CCc1ccc(CCOc2ccc(CC3SC(=O)NC3=O)cc2)nc1 (configuration not stated)

>  <observed property>
AC50

>  <test value>
> 30 µM

$$$$
>  <molecule>
COc1cc2c(cc1OC)[C@H]1C[C@@H](OC(=O)[C@@H](N)C(C)C)[C@H](CC(C)C)CN1CC2

>  <observed property>
AC50

>  <test value>
> 30 µM

$$$$
>  <molecule>
O=C1CC[C@@]2(O)[C@H]3Cc4ccc(O)c5c4[C@@]2(CCN3CC2CC2)[C@H]1O5 [NALTREXONE]

>  <observed property>
AC50

>  <test value>
> 30 µM

$$$$
>  <molecule>
COc1cc(NCc2ccc3nc(N)nc(N)c3c2C)cc(OC)c1OC [TRIMETREXATE]

>  <observed property>
AC50

>  <test value>
3.8 µM

$$$$
>  <molecule>
Oc1c(I)cc(I)c2cccnc12

>  <observed property>
AC50

>  <test value>
> 30 µM

$$$$

Hey, just so you know, these numbers are from ChEMBL document CHEMBL5291721.
